tested.on: human MAO-B (Homo sapiens, UniProt P27338)
Sequence (P27338 1-520): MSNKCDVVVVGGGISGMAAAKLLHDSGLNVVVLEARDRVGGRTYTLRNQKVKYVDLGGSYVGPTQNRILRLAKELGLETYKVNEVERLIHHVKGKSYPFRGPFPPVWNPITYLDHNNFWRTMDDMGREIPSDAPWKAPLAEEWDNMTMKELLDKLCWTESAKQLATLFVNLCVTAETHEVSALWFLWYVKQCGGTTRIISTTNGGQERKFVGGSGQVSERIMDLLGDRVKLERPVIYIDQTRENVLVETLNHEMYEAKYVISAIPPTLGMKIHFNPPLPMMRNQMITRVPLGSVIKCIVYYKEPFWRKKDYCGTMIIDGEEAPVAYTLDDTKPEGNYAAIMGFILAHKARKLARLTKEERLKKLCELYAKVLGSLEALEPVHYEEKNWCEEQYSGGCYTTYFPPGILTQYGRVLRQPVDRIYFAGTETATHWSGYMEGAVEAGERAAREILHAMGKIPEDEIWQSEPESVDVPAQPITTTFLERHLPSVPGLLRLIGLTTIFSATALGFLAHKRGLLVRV
procedure.details: MAO-Glo bioluminescent enzymatic assay, MAO-B
Type: biochemical
applied.conditions: summary column of Tables 3 and 4
reported.endpoint: MAO-B inhibition (yes/no)

Some compounds with known MAO-B inhibition (yes/no) results, for comparison:
| compound | MAO-B inhibition (yes/no) |
| --- | --- |
| c1ccc2c(c1)[nH]c1cnccc12 | yes |
| Cc1nccc2c1[nH]c1ccccc12 | no |
| CN1CCC[C@H]1c1cccnc1 | no |
| COc1ccc2c3c([nH]c2c1)C(C)=NCC3 | no |
| CN1Cc2c(N)cccc2C(c2ccccc2)C1 (stereo not drawn) | no |

Field: next compound
Problem: Return value of MAO-B inhibition (yes/no) for input CCc1nccc2c1[nH]c1ccccc12 [1-ethyl-β-carboline, 9H-pyrido[3,4-b] indole, 1-ethyl] , no commentary.
Solution: no
